# System: Sarcoma-180 cells
# Assay Explanation: Antineoplastic activity, mice having Sarcoma-180 cells transplanted subcutaneously
# Assay type: in vivo, mouse (female, CDR strain)
# Cond: Mus musculus, Sarcoma-180, iv, 144 h; i.v. 0.5 mg/kg single dose, tumor weighed six days after dosage; read-out: T/C (average tumor weight, dosed vs. solvent-dosed control)

{"Compound": "COC(=O)c1c(C(F)(F)F)[nH]c2c(O)cc3c(c12)C(CCl)CN3C(=O)c1cc2cc(NC(=O)c3ccc4ccccc4c3)ccc2[nH]1 (stereo not shown)", "Unit Text": "%", "response vs control in vivo at 0.5 mg/kg": 11}
{"Compound": "COC(=O)c1c(C(F)(F)F)[nH]c2c(O)cc3c(c12)C(CCl)CN3C(=O)c1cc2cc(NC(=O)c3cc4ccccc4o3)ccc2[nH]1 (stereo not shown)", "Unit Text": "%", "response vs control in vivo at 0.5 mg/kg": 15}
{"Compound": "COC(=O)c1c(C(F)(F)F)[nH]c2c(O)cc3c(c12)C(CCl)CN3C(=O)c1cc2cc(NC(=O)c3cnc4ccccc4c3)ccc2[nH]1 (stereo not shown)", "Unit Text": "%", "response vs control in vivo at 0.5 mg/kg": 17}
{"Compound": "COC(=O)c1c(C(F)(F)F)[nH]c2c(O)cc3c(c12)C(CCl)CN3C(=O)c1cc2cc(NC(=O)c3cc4c(OC)c(OC)c(OC)cc4[nH]3)ccc2[nH]1 (stereo not shown)", "Unit Text": "%", "response vs control in vivo at 0.5 mg/kg": 7}

Reference for the values: patent US5629430A
